- MEASURED ON: T1, PUF4 RNA-binding domain (Saccharomyces cerevisiae, UniProt P25339 537-888)
- T1 sequence: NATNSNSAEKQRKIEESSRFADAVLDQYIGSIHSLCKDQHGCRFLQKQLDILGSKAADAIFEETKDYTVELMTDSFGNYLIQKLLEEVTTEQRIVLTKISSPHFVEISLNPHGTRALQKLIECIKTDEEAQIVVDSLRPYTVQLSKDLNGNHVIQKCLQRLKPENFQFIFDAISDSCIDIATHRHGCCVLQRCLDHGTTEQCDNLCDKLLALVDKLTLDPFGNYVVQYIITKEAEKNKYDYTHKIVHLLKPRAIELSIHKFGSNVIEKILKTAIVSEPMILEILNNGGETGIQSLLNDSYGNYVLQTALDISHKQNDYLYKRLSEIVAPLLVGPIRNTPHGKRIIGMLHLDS
- TEST NAME: Mg; RNA-MaP; 20 mM Na-HEPES pH 7.4, 30 mM KOAc, 0.75 mM MgCl2, 0.1% Tween-20, 5% glycerol, 0.1 mg/mL BSA, 2 mM DTT; 25 C; 0.0125-409.6 nM protein
- RUN CONDITIONS: tags: N-His6-TEV cleaved; C-SNAP kept, Cy3B-labelled; label: tethered on chip by stalled RNA polymerase
Threshold check on Kd: strictly below 30 nM is met; on or above 30 nM is not met.

Reference set (3 entries):
| BINDER | QUALITATIVE LABEL |
| --- | --- |
| UCUCUUUGUACUUGUUUCUCUU (ssRNA) [Ic_S1_P5E.1_K5.1_C5.1_H5.1_A5.1_[T5C]_[A7T]_F5.1_[T8G]_[A10T]_T5.1] | not met |
| Id_ii_S2_P4E.3_K4.2_C4.2_[T-1A]_H4.2_A4.1_F4.1_T4.2_[T11G] (ssRNA) RNA: UUUGAUUAAUAUGAUAUCGUUCUUUCUCAUAUAUAUUAGGUUCUUUCUCGAUAUCAUAUUAAUCUUU | not met |
| Id_ii_S4_P3E.2_K3.1_C3.2_[C-2T]_[T-1C]_H3.1_A3.1_F3.1_T3.2_[T9C] (ssRNA) RNA: UUUGACAACUGAUCGUUCUUUCUUCUGUAUAUACAUUCUUUCUCGAUCAGUUGUCUUU | met |

Q. Dear reviewer, please state whether Ic_S2_P5E.1_K5.1_C5.1_H5.1_A5.1_[T6C]_[A7G]_F5.1_[T9A]_[A10C]_T5.1 (ssRNA) RNA: UUUGAUUAAUAUGAUAUCGUUCUUUCUUGUAUCGUACUUCUUUCUCGAUAUCAUAUUAAUCUUU has Kd strictly beneath 30 nM.
A. met

Q. Dear reviewer, please state whether Ic_S4_P3E.1_K3.1_C3.1_H3.1_A3.1_[T5C]_F3.1_[T7G]_[A8T]_T3.1 (ssRNA) RNA: UUUGACAACUGAUCGUUCUUUCUUGUACAGUUUCUUUCUCGAUCAGUUGUCUUU has Kd strictly beneath 30 nM.
A. met
